- Target or system: Guanidinoacetate N-methyltransferase (Homo sapiens)
- Test details: Confirmatory Screen for Target Class Profiling of Small Molecule Inhibitors of Methyltransferases (AID 1745852); note: % is set by controls: 0 for no effect and ±100 for the full control effect
- Experimental context: MTase-Glo luminescence, SAH detection, recombinant enzyme; at 57.3 µM (top of the series) unless noted
Property: activity change, negative = inhibition; scope: individual molecules
Write the value in % as a bare number.

Look over these answered cases.
Molecule: CN(CCCNC(=O)CCc1nnc2n(Cc3ccccc3)c(=O)c3ccccc3n12)Cc1ccccc1
Quantity kind: activity change, negative = inhibition
Measurement units: %
Numeric result: 0

Molecule: O=C(Nc1ccc2c(N3CCOCC3)ncnc2c1)c1cccc(Cl)c1
Quantity kind: activity change, negative = inhibition
Measurement units: %
Numeric result: -4.21

Molecule: CN1C(=O)C(c2ccccc2)CC12CCN(c1ccnc(N)n1)CC2 (stereo not given)
Quantity kind: activity change, negative = inhibition
Measurement units: %
Numeric result: 9.95

Molecule: CCOC(=O)C1CCCN(S(=O)(=O)c2ccc3[nH]c(=O)[nH]c3c2)C1 (stereo not given)
Quantity kind: activity change, negative = inhibition
Measurement units: %
Numeric result: 0

Molecule: CC1CC(C)CN(S(=O)(=O)c2ccc3c(c2)oc(=O)n3CC(=O)Nc2ccc(F)cc2)C1 (stereo not given)
Quantity kind: activity change, negative = inhibition
Measurement units: %
Numeric result: 0

### Prompt Please give the measured activity change, negative = inhibition for this molecule: CCOc1ccccc1CN1CCC(Cc2nc(-c3cccnc3)n[nH]2)C1 (stereo not given)
### Response 0.265

### Prompt Please give the measured activity change, negative = inhibition for this molecule: "O=C(c1ccc2c(=O)nc3c(-c4ccc(Cl)cc4)n[nH]n3c2c1)N1CCN(Cc2ccccc2)CC1"
### Response 1.01

### Prompt Please give the measured activity change, negative = inhibition for this molecule: COc1ccccc1CNC(=O)C1(C)Cn2c(cc3ccccc32)C(=O)N1Cc1ccc(OC)c(OC)c1 (stereo not given)
### Response 0

### Prompt Please give the measured activity change, negative = inhibition for this molecule: "O=C(CCc1nnc2n(Cc3ccc(Cl)cc3)c(=O)c3ccccc3n12)N1CCC(N2CCCCC2)CC1"
### Response -0.992

### Prompt Please give the measured activity change, negative = inhibition for this molecule: CCCC1c2cccn2CCN1C(=O)Nc1ccccc1Br (stereo not given)
### Response -3.12

### Prompt Please give the measured activity change, negative = inhibition for this molecule: COc1ccc(OCc2cc(C(=O)NC(CO)C(C)C)no2)c2ccccc12 (stereo not given)
### Response 1.38

### Prompt Please give the measured activity change, negative = inhibition for this molecule: CCOCCCN1C(=O)c2cc3c(OC)ccc(OC)c3n2CC1(C)C(=O)NC1CCCCC1 (stereo not given)
### Response -4.76

### Prompt Please give the measured activity change, negative = inhibition for this molecule: "CC(C)Cn1c(=O)c2ccccc2n2c(CCC(=O)N3CCC(Cc4ccccc4)CC3)nnc12"
### Response 0.755

### Prompt Please give the measured activity change, negative = inhibition for this molecule: CC1(C(=O)NC2CCCCC2)Cn2c(c(-n3cccc3)c3ccccc32)C(=O)N1Cc1ccccn1 (stereo not given)
### Response 0

### Prompt Please give the measured activity change, negative = inhibition for this molecule: Cn1c(COc2cccc(CN3CCCC3)c2Cl)nnc1C1CC(N)C1 (stereo not given)
### Response -2.28

### Prompt Please give the measured activity change, negative = inhibition for this molecule: "CN(CCCNC(=O)Cn1ccc2cc(S(=O)(=O)N3CCCCC3)ccc21)C1CCCCC1"
### Response 0.637

### Prompt Please give the measured activity change, negative = inhibition for this molecule: "COc1cc2nc(N3CCCCC3)nc(NC3CCN(C)CC3)c2cc1OC"
### Response 3.17

====

- Tested on: ICS
- Test details: qHTS profiling for inhibitors of Plasmodium falciparum proliferation (AID 504749); note: nearly all actives have a fitted effect of over 60% in size
- Experimental context: P. falciparum in erythrocytes, SYBR Green DNA, 72 h; series mostly up to 28.7 µM
Inconclusive results are not listed. Calls of active or inactive are those of the source. Calls follow the shape of the dose curve; as a rule, active = well fitted inhibition curve with a large enough effect; inconclusive = small, poorly fitted or top-dose-only effect; inactive = flat fitted curve, though single readings scatter. Bridge positions count the residues as written; N and C are the ends. Square brackets hold non-standard residues; d marks the D form. Peptide text beside a SMILES is read from it. * marks the point of attachment. Octanoyl(6-Me) = CCC(C)CCCCC(=O)*; Dab = NCC[CH](N)C(=O)O
Your reply should match one of these outcome classes. active, inactive

Compound: C1OCOCO1
Class: inactive
--
Compound: C=C[C@]1(C)C[C@@H](OC(=O)CSCCN(CC)CC)[C@]2(C)C(C)CC[C@]3(CCC(=O)[C@H]32)[C@@H](C)[C@@H]1O (some centres not stated)
Class: active
--
Compound: CCC(=O)O[C@@H](OP(=O)(CCCCc1ccccc1)CC(=O)N1C[C@H](C2CCCCC2)C[C@H]1C(=O)O)C(C)C (some centres not stated)
Class: inactive
--
Compound: CC1(C)S[C@@H]2[C@H](NC(=O)COc3ccccc3)C(=O)N2[C@H]1C(=O)O
Class: inactive
--
Compound: CCC(C)CCCCC(=O)NC(CCN)C(=O)NC(C(=O)NC(CCN)C(=O)NC1CCNC(=O)C(C(C)O)NC(=O)C(CCN)NC(=O)C(CCN)NC(=O)C(CC(C)C)NC(=O)C(Cc2ccccc2)NC(=O)C(CCN)NC1=O)C(C)O (configuration not stated) ({Octanoyl(6-Me)}-[Dab]T[Dab][Dab][Dab]FL[Dab][Dab]T; lactam 4-C; configuration not given here)
Class: inactive
--
Compound: NC1=NC(S)C2N=CN=C2N1 (configuration not stated)
Class: inactive

### Prompt In this assay, the call recorded for CC1CCC(C(C)C)C(OC(=O)c2ccccc2O)C1 (configuration not stated) was what?
### Response inactive

====

- Test details: Cell Viability - BJ (AID 421);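 note: potency is the fitted concentration of half-maximal effect; cells exposed to compound for 40 hours at 37 °C before readout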
- Experimental context: BJ fibroblast viability, qHTS
- Source text: NIH Chemical Genomics Center [NCGC] NIH Molecular Libraries Screening Centers Network [MLSCN] National Institutes of Environmental Health Sciences [NIEHS] National Toxicology Program [NTP] We have developed a 1536-well cell-based assay for quantitative high throughput screening (qHTS) against a number of cell lines to determine in vitro cytotoxicity of small molecules. […] 8. Detection; Luminescence; Viewlux plate reader […]
Results filed as inconclusive are left out. Active and inactive are the calls of the source. Calls come from the whole dose curve.
Your reply should match one of these outcome classes. True for active, False for inactive

Examples with answers:
Compound: C[C@H](CCC(=O)O)[C@H]1CC[C@H]2[C@@H]3CC[C@@H]4C[C@H](O)CC[C@]4(C)[C@H]3CC[C@]12C
Class: False
//
Compound: Cc1ccc([N+](=O)[O-])c(C)c1
Class: False
//
Compound: Nc1ccc(Cl)cc1Cl
Class: False
//
Compound: C=C(C)C1CC=C(C)C(O)C1 (centres undefined)
Class: False
//
Compound: Cc1ccc([N+](=O)[O-])cc1N
Class: False

Attention now shifts to the item below.
### Prompt In this assay, the call recorded for "c1ccc2c(c1)c1cccc3ccc4cccc2c4c31" was what?
### Response False

====

- Test details: qHTS assay for small molecule agonists of the antioxidant response element (ARE) signaling pathway measured by Nrf2-dependant transcriptional activity (AID 720636);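 note: HepG2 cells with an ARE-driven luciferase reporter; % of control where 0% means no effect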
- Experimental context: ARE-luc HepG2, Nrf2 luciferase reporter, 16 h; series mostly up to 92.4 µM
Results filed as inconclusive are left out. Active and inactive are the calls of the source. Calls come from the whole dose curve; as a rule, active = well fitted activation curve with a large enough effect in the repeat runs; inconclusive = weak or mixed curves; inactive = flat fitted curve, though single readings scatter.
Your reply should match one of these outcome classes. 1 for active, 0 for inactive

### Prompt In this assay, the call recorded for "Cc1cccc([N+](=O)[O-])c1C" was what?
### Response 0

====

- Target or system: Cytochrome P450 2C19 (Homo sapiens) (UniProt P33261)
- Sequence (P33261 whole entry, looked up): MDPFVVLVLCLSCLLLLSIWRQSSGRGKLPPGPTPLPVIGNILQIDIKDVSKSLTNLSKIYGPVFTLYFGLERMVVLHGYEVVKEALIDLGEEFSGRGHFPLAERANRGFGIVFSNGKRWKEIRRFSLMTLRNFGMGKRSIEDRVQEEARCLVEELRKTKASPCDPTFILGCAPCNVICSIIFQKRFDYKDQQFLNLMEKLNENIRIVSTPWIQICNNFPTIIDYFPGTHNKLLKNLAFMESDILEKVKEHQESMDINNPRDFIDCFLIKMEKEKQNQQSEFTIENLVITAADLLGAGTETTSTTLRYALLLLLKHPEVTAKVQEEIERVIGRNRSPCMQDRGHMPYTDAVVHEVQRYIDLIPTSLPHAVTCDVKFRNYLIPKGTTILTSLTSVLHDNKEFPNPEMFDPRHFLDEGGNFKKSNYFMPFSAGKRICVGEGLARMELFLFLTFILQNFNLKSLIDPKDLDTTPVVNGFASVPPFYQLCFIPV
- Test details: qHTS Assay for Inhibitors and Substrates of Cytochrome P450 2C19 (AID 899); note: potency is the fitted concentration of half-maximal effect; nearly all actives have a fitted effect of over 60% in size
- Experimental context: recombinant CYP2C19, luciferin-H EGE luminescence; series mostly up to 57.1 µM
Inconclusive results are not listed. Activity calls are given as the source filed them. The call rests on the fitted dose curve; in most records, active means well fitted inhibition curve with a large enough effect; inconclusive means small, poorly fitted or top-dose-only effect; inactive means no such curve, though single readings can be large or run the other way.
Quantity kind: Potency

Chemical structure: COc1ccc2[nH]cc(CCNc3ncncc3-c3ccccc3C)c2c1
Quantity kind: Potency
Result: 0.0501 µM (active)

Chemical structure: CCNc1ncc2ncc(=O)n(Cc3cccc(OC)c3)c2n1
Quantity kind: Potency
Result: 2 µM (active)

Chemical structure: COc1ccc2[nH]cc(CCNc3cc(-c4cccc(C#N)c4)ncn3)c2c1
Quantity kind: Potency
Result: 7.94 µM (active)

Chemical structure: COc1ccccc1CNc1ncncc1-c1ccccc1Cl
Quantity kind: Potency
Result: 1.26 µM (active)

Chemical structure: CCNc1ncc2nc(CCc3ccccc3)c(=O)n(Cc3cccc(OC)c3)c2n1
Quantity kind: Potency
Result: 6.31 µM (active)

### Prompt Please give the measured Potency for this molecule: "COc1ccc(-n2c(=O)c(CCc3ccccc3)nc3cnc(OC)nc32)cc1"
### Response 6.31 µM (active)

====

- Target or system: Rap guanine nucleotide exchange factor 3 (Homo sapiens) (UniProt O95398)
- Sequence (O95398 whole entry, looked up): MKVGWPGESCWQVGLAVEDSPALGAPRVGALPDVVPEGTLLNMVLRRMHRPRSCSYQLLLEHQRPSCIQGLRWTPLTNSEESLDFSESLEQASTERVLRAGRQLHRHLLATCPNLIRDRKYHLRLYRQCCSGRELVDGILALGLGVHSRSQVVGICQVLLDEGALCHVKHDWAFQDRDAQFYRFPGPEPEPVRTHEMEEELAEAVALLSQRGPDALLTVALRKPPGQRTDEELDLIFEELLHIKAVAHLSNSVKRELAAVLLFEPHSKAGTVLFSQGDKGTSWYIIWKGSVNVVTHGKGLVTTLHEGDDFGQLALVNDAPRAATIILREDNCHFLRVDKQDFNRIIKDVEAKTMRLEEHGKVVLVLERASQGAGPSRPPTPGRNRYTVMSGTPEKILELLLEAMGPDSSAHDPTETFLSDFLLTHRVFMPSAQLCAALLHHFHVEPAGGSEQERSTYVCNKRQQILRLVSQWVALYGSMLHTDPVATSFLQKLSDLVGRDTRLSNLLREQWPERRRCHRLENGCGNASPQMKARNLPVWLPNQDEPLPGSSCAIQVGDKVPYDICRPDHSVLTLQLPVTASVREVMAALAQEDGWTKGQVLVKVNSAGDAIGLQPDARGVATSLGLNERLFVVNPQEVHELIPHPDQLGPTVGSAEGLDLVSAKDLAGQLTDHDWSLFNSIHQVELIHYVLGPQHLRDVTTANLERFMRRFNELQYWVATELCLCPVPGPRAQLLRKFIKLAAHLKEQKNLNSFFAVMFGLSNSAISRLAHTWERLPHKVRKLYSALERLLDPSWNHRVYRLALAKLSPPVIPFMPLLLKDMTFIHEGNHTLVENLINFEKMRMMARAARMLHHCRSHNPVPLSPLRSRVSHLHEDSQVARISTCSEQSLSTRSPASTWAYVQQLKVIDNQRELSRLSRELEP
- Test details: Counterscreen qHTS for antagonist of cAMP-regulated guanine nucleotide exchange factor 3 (EPAC1) (AID 1645888);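 note: fluorescence loss as bound BODIPY-GDP is released from Rap1B; % of control where 0% means no effect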
- Experimental context: Rap1B-BODIPY-GDP nucleotide exchange, fluorescence; series mostly up to 154 µM
Results filed as inconclusive are left out. Active and inactive are the calls of the source. The call rests on the fitted dose curve; in most records, active means well fitted inhibition curve with a large enough effect; inconclusive means small, poorly fitted or top-dose-only effect; inactive means no such curve, though single readings can be large or run the other way.
Quantity kind: activity change, negative = inhibition

Look over these answered cases.
Compound: COc1cc(C)nc(N2CCCC(C(=O)Nc3cc(Cl)ccc3OC)C2)n1 (stereo unspecified)
Quantity kind: activity change, negative = inhibition
Result: inactive
--
Compound: O=C1/C(=C/c2ccco2)Oc2c1ccc(O)c2CN1CCCCC1
Quantity kind: activity change, negative = inhibition
Result: inactive
--
Compound: CC(=O)Nc1scc(-c2ccccc2)[n+]1-c1ccc(C)cc1
Quantity kind: activity change, negative = inhibition
Result: -4.14% [at 30.8 µM] (inactive)
--
Compound: O=S(=O)(Nc1ccc(Cl)cc1NS(=O)(=O)c1ccccc1)c1ccccc1
Quantity kind: activity change, negative = inhibition
Result: -27.8% [at 30.8 µM] (inactive)
--
Compound: COCCCn1c(=N)c(C(=O)NCc2cccnc2)cc2c(=O)n3cccc(C)c3nc21
Quantity kind: activity change, negative = inhibition
Result: inactive

// next entry
### Prompt Please give the measured activity change, negative = inhibition for this compound: "N#Cc1c(N)c(C#N)c(-c2ccc(O)cc2)c2c1CCCC2"
### Response inactive

Reference source for all entries: PubChem BioAssay (NCATS)
